Test system: Radical scavenging activity
Experiment: Antioxidant activity assessed as DPPH radical scavenging activity after 20 min
Format: functional
# IC25 >= 8 µM gives yes, anything below gives no

Observe how each entry below is paired with its result.
{"columns": ["compound", "target.desc", "label"],
 "data": [
  ["O=c1cc(-c2ccccc2O)oc2c(O)c(O)ccc12", "Radical scavenging activity", "no"],
  ["O=c1c(O)c(-c2ccc(O)cc2)oc2cc(O)cc(O)c12 [KAEMPFEROL]", "Radical scavenging activity", "yes"],
  ["Oc1cc(O)c2c(c1)O[C@H](c1ccc(O)c(O)c1)[C@@H](O)C2 [CIANIDANOL]", "Radical scavenging activity", "yes"],
  ["COc1cc([C@@H]2Oc3cc([C@@H]4Oc5cc(O)cc(O)c5C(=O)[C@H]4O)ccc3O[C@H]2CO)ccc1O", "Radical scavenging activity", "yes"],
  ["COc1ccc([C@@H]2CC(=O)c3c(O)cc(O)cc3O2)cc1O [HESPERETIN]", "Radical scavenging activity", "yes"]
]}

input: Please indicate if the recorded IC25 for O=c1c(O)c(-c2cc(O)c(O)c(O)c2)oc2cc(O)cc(O)c12 [MYRICETIN] meets or exceeds 8 µM.
output: yes

input: Assess whether reported IC25 for O=c1cc(-c2ccc(O)c(O)c2)oc2cc(O)cc(O)c12 [LUTEOLIN] sits at 8 µM or higher.
output: yes

input: I'd appreciate it if you could say whether COc1ccc(-c2oc3ccc(C)cc3c(=O)c2O)cc1OC has IC25 at least equal to 8 µM.
output: yes

input: Confirm if IC25 reported for the compound COc1c(-c2ccc(O)c(O)c2)oc2cc(O)cc(O)c2c1=O [3-O-METHYLQUERCETIN] is 8 µM or above.
output: no

input: Dear colleague, could you confirm whether O=c1cc(-c2ccccc2)oc2cc(O)c(O)c(O)c12 [BAICALEIN] has IC25 at or above 8 µM?
output: no

input: Tell me whether IC25 is at least 8 µM here: C[C@@H]1O[C@@H](OC[C@H]2O[C@@H](Oc3c(-c4ccc(O)c(O)c4)oc4cc(O)cc(O)c4c3=O)[C@H](O)[C@@H](O)[C@@H]2O)[C@H](O)[C@H](O)[C@H]1O
output: yes

input: Hello, I need to know if O=c1cc(-c2ccc(O)c(O)c2)oc2cccc(O)c12 has measured IC25 not below 8 µM. Thanks!
output: no

input: Check this compound for IC25 at or above 8 µM: Oc1ccc(/C=C/c2cc(O)cc(O)c2)cc1 [RESVERATROL]
output: yes

input: Could you please find out whether O=c1c(O)c(-c2ccccc2)oc2cc(O)cc(O)c12 [GALANGIN] has IC25 that meets 8 µM or exceeds it?
output: yes

====

Assay: Antioxidant activity in BALB/c mouse BM cells assessed as inhibition of ROS production
Format: functional
Details: Bone marrow cell
Can you tell me IC25 for the items I'm about to list?
One number for each entry, in µM.

{"columns": ["compound", "readout.units", "value"],
 "data": [
  ["O=c1c(O)c(-c2ccc(O)cc2)oc2cc(O)ccc12", "µM", 23]
]}

Return reported IC25 values for all items listed beneath this line.
1. O=C1CC(c2ccccc2O)Oc2ccccc21 (centres undefined) [2'-HYDROXY-FLAVANONE]
2. O=c1cc(-c2ccccc2O)oc2cc(O)cc(O)c12

output:
1. 5620
2. 5.7

input: Sample COc1ccc(-c2cc(=O)c3c(O)cc(O)cc3o2)cc1 — what was its IC25?
output: 1180

====

Test system: Radical scavenging activity
Test: Antioxidant activity assessed as DPPH radical scavenging activity after 20 min
Format: functional
For each record, write down the corresponding IC25.
Answers are plain numbers, in µM.

{"columns": ["structure.as.smiles", "quantity", "value"],
 "data": [
  ["O=c1cc(-c2cccc(O)c2O)oc2ccccc12", "IC25", 0.5],
  ["O=c1c(O)c(-c2ccc(O)c(O)c2)oc2cc(O)ccc12", "IC25", 7.9],
  ["O=c1c(O)c(-c2ccc(O)cc2)oc2ccc(O)cc12", "IC25", 4.5],
  ["O=c1c(O)c(-c2ccc(O)c(O)c2)oc2ccccc12", "IC25", 0.7],
  ["O=c1c(O)c(-c2ccc(O)cc2)oc2cc(O)ccc12", "IC25", 4.1],
  ["O=c1c(O)c(-c2ccc(O)c(O)c2)oc2cc(O)cc(O)c12", "IC25", 8.1]
]}

input: Given the entry O=c1cc(-c2cccc(O)c2)oc2c(O)c(O)ccc12 , report its measured IC25.
output: 2.7
